protocol notes: log P by HPLC on reversed-phase column (EEC Directive 79/831 Annex V.A8)
Format: physicochemical
experimental context: HPLC on reversed-phase column (C 18), 40° C., 0.1% aqueous formic acid and acetonitrile, linear gradient 10% to 90% acetonitrile
logP values for the molecules below.
Number only, no unit.

Example cases with answers are listed next.
Per the record, CC(c1ccc(Oc2ccccc2)cc1)N(C)C(=O)c1c(C(F)F)nn(C)c1F (racemic) [Example 154] has logP of 3.59

The value of logP measured for the molecule Cn1nc(C(F)F)c(C(=O)NCc2ccc(-c3ccccc3)cc2)c1F [Example 170] turned out to be 3.21

Summary for this molecule, CN(Cc1cccc(Oc2ccccc2)c1)C(=O)c1c(C(F)F)nn(C)c1F [Example 150] : logP is 3.31

Entry CN(Cc1ncc(Cl)cc1Cl)C(=O)c1c(C(F)F)nn(C)c1F [Example 179] , logP reported as 2.53

Attention now turns to another entry.
Consider CN(Cc1cc(Cl)ccn1)C(=O)c1c(C(F)F)nn(C)c1F [Example 174] . Its measured logP is 1.84

* * *

protocol notes: log P by HPLC on reversed-phase column (EEC Directive 79/831 Annex V.A8)
Format: physicochemical
experimental context: HPLC on reversed-phase column (C 18), 40° C., 0.1% aqueous formic acid and acetonitrile, linear gradient 10% to 90% acetonitrile
assay endpoint: logP
Please state the value as a number alone, without comment.

Previously resolved entries follow.
Record Cn1nc(C(F)F)c(C(=O)NCc2cccc(Oc3ccccc3)c2)c1Cl [Example 146] , field logP: 3.46

So, Cn1nc(C(F)F)c(C(=O)NC2(c3ccccn3)CCCC2)c1F [Example 172] ? Its logP was 1.13

Recorded logP (molecule Cn1nc(C(F)F)c(C(=O)NC2(c3ccc(C(F)(F)F)cc3)CCCC2)c1Cl [Example 122] ): 3.87

Next, consider the following molecule.
The molecule identified as CC(NC(=O)c1c(C(F)F)nn(C)c1Cl)c1ncc(C(F)(F)F)cc1Cl (racemic) [Example 177] registered its logP at 3.48

* * *

protocol notes: log P by HPLC on reversed-phase column (EEC Directive 79/831 Annex V.A8)
Format: physicochemical
experimental context: HPLC, reversed-phase C 18, 40° C., 0.1% aqueous formic acid and acetonitrile, linear gradient 10% to 90% acetonitrile
Values of logP greater than or equal to 3 map to criterion met; values below map to criterion not met.

Example results:
Enquiry: Could you tell me if the measured logP of Cn1nc(C(F)F)c(C(=O)NC(C)(C)c2c(F)cccc2F)c1F [Example 9] reaches 3 or more?
Return: criterion met

Enquiry: Identify whether the reported logP of the following compound is 3 or greater: CC(C)c1ccccc1CN(C)C(=O)c1c(C(F)F)nn(C)c1F [Example 72]
Return: criterion met

Enquiry: Given CC(NC(=O)c1c(C(F)F)nn(C)c1Cl)c1cc(Cl)ccc1Cl (centres unmarked) [Example 50] , state whether its logP is at least 3.
Return: criterion met

Enquiry: Does the compound CC(NC(=O)c1c(C(F)F)nn(C)c1F)c1ccccc1 (racemic) [Example 2] have recorded logP that is 3 or more?
Return: criterion not met

Further cases:
Enquiry: # bool: logP of CCN(Cc1c(Cl)cccc1C(F)(F)F)C(=O)c1c(C(F)F)nn(C)c1F [Example 91] >= 3
Return: criterion met
